Here the recorded max inhibition of viability %, hits give high values is given for each entry.
# method.notes: A549 cell cytotoxicity, dose response, cytotoxicity control, luminescence, dry powder, set 10 (AID 743356)
# condition.description: CellTiter-Glo ATP luminescence, 72 h; at 26 µM unless noted
Calls of active or inactive are those of the source.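 How the source made its calls: active means compounds that cut cell viability with a fitted half-maximal dose no more than twice the top valid dose; inconclusive means flat curve inhibiting 30 to 70%, or a poor fit; inactive means the rest, including any rise in viability.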

Example cases with answers are listed next.
smiles.input: COCC(=O)N1CC[C@@H]2[C@@H](CO)N(C)c3ccc(-c4cccc(F)c4)cc3[C@@H]21
reported.result: -10.3% (inactive)
--
smiles.input: CN1c2ccc(-c3cccc(F)c3)cc2[C@@H]2[C@@H](CCN2C(=O)c2ccc3c(c2)OCO3)[C@H]1CO
reported.result: -9.13% (inactive)
--
smiles.input: COc1ccccc1C(=O)N1CCN(c2ccc(C(C)=O)cc2)CC1
reported.result: 13.9% [at 0.012 µM] (inactive)
--
smiles.input: CC(=O)c1ccc(N2CCN(C(=O)c3ccccc3Cl)CC2)cc1
reported.result: 15.7% [at 0.195 µM] (inactive)
--
smiles.input: CN1c2ccc(-c3cccc(F)c3)cc2[C@H]2[C@H](CCN2C(=O)c2ccc3c(c2)OCO3)[C@@H]1CO
reported.result: -9.58% (inactive)

get_value(item= `CC(=O)c1ccc(N2CC3(CN(C(=O)c4ccc5c(c4)OCO5)C3)C2)cc1` , readout=max inhibition of viability %, hits give high values) returns -11.2% [setting not given] (inactive)

get_value(item= `CC(=O)c1ccc(N2CCN(C(=O)c3ccc4c(c3)OCO4)[C@H](C)C2)cc1` , readout=max inhibition of viability %, hits give high values) returns 9.13% [at 12 µM] (inactive)

get_value(item= `CN(C)C(=O)c1ccc(N2CCN(C(=O)c3ccc4c(c3)OCO4)CC2)cc1` , readout=max inhibition of viability %, hits give high values) returns 10.1% [at 0.1 µM] (inactive)

get_value(item= `CC(=O)c1ccc(N2CCN(C(=O)c3ccccc3F)CC2)cc1` , readout=max inhibition of viability %, hits give high values) returns 10.7% [at 0.012 µM] (inactive)

get_value(item= `CN1c2ccc(-c3cccc(F)c3)cc2[C@H]2[C@H](CCN2C(=O)Cc2cccnc2)[C@H]1CO` , readout=max inhibition of viability %, hits give high values) returns -2.44% (inactive)

get_value(item= `CN1c2ccc(-c3cccc(F)c3)cc2[C@H]2[C@H](CCN2C(=O)Cc2ccccc2)[C@H]1CO` , readout=max inhibition of viability %, hits give high values) returns -6.91% [at 23.5 µM] (inactive)

get_value(item= `CNS(=O)(=O)c1ccc(N2CCN(C(=O)c3ccc4c(c3)OCO4)CC2)cc1` , readout=max inhibition of viability %, hits give high values) returns 21.4% [at 0.003 µM] (inactive)

get_value(item= `CN1c2ccc(-c3ccc(F)cc3)cc2[C@H]2[C@H](CCN2C(=O)Nc2cc(F)ccc2F)[C@H]1CO` , readout=max inhibition of viability %, hits give high values) returns -3.91% [at 23.5 µM] (inactive)

get_value(item= `COc1ccccc1NC(=O)N1CC[C@@H]2[C@@H](CO)N(C)c3ccc(-c4cccc(F)c4)cc3[C@@H]21` , readout=max inhibition of viability %, hits give high values) returns -10.1% [at 23.5 µM] (inactive)

get_value(item= `CN1c2ccc(-c3ccc(F)cc3)cc2[C@H]2[C@H](CCN2C(=O)Cc2cccnc2)[C@H]1CO` , readout=max inhibition of viability %, hits give high values) returns 13.9% [at 0.0007 µM] (inactive)

get_value(item= `CCCNC(=O)N1CC[C@@H]2[C@@H](CO)N(C)c3ccc(-c4ccc(F)cc4)cc3[C@@H]21` , readout=max inhibition of viability %, hits give high values) returns -28.2% [at 0.38 µM] (inactive)

get_value(item= `CCCCCCCC(=O)N1CC[C@@H]2[C@@H](CO)N(C)c3ccc(-c4cccc(F)c4)cc3[C@@H]21` , readout=max inhibition of viability %, hits give high values) returns 20.6% [at 0.006 µM] (inactive)

get_value(item= `COc1ccccc1NC(=O)N1CC[C@@H]2[C@@H](CO)N(C)c3ccc(-c4ccc(F)cc4)cc3[C@@H]21` , readout=max inhibition of viability %, hits give high values) returns 13.3% [at 0.0015 µM] (inactive)
